# Protocol Summary: chemical genetic growth profiling, strain panel (AID 1159580);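 further: tested at 20 µM; growth read once vehicle control cultures reached saturation at 30 °C; 1 = growth at the plate median or of vehicle wells; lower values mean less growth of the strain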
# Measurement Setup: S. cerevisiae deletion strains, growth OD, locus YDR001C, strain nth1, hits give low values
The campaign covered roughly 5,500 compounds. About 2,000 (36%) were called active. Inconclusive results (about 18%) are left out. The list shows a part of the results. Where a SMILES comes first, the peptide text is derived from it.
Recorded Metric: normalized growth

| Molecule | Recorded Metric | Measured Number |
| --- | --- | --- |
| NCC[C@@H](O)C(=O)N[C@@H]1C[C@H](N)[C@@H](O[C@H]2O[C@H](CN)[C@@H](O)[C@H](O)[C@H]2O)[C@H](O)[C@H]1O[C@H]1O[C@H](CO)[C@@H](O)[C@H](N)C1O (stereo partly specified) | normalized growth | 1.02 |
| CC(=O)N[C@@H](CCC(=O)O)C(=O)O | normalized growth | 1.02 |
| CN(C/C=C/C#CC(C)(C)C)Cc1cccc2ccccc12 | normalized growth | 0.573 |
| COc1cc(C)c2c(=O)cc(-c3ccccc3)oc2c1 | normalized growth | 0.938 |
| Cc1cccc(C)c1NC(=O)C1CCCCN1C (stereo unspecified) | normalized growth | 0.985 |
| CC1(C)N([O-])[N+](=O)C1(C)Br (stereo unspecified) | normalized growth | 0.987 |
| Oc1c(Cl)cc(Cl)c(Cl)c1Cc1c(O)c(Cl)cc(Cl)c1Cl | normalized growth | 0.0623 |
| NCCCNCCSP(=O)(O)O | normalized growth | 0.977 |
| COc1c(C)c2c(c(O)c1C/C=C(\C)CCC(=O)O)C(=O)OC2 | normalized growth | 0.604 |
| CC(=O)N[C@@H](CC(=O)O)C(=O)N[C@@H](CCC(=O)O)C(=O)O (Ac-Asp-Glu-OH) | normalized growth | 1 |
| NC1(C(=O)O)CC1 | normalized growth | 1.02 |
| COC[C@]12CN(C=O)C3[C@@H]4[C@H](OC)C1[C@]3(C1CC3(O)C(OC)C(O)C4(OC(C)=O)C1C3OC(=O)c1ccccc1)[C@@H](OC)C[C@H]2O (stereo partly specified) | normalized growth | 1.01 |
| CN(C)C(=O)Oc1ccc[n+](C)c1 | normalized growth | 1 |
| CN[C@@H]1C(OC2[C@H](O[C@H]3[C@H](O)[C@@H](O)[C@H](N=C(N)N)[C@@H](O)[C@@H]3N=C(N)N)OC(C)[C@]2(O)CO)OC(CO)C(O)C1O (stereo partly specified) | normalized growth | 1.02 |
| COC1C=CC23c4cc5c(cc4CN(CC2O)[C@@H]3C1)OCO5 (stereo partly specified) | normalized growth | 0.979 |
| CC12CCCCC1(Br)[N+](=O)N2[O-] (stereo unspecified) | normalized growth | 1.01 |
| CCCCC(=O)O[C@]1(C(=O)CO)CCC2C3CCC4=CC(=O)CC[C@]4(C)C3[C@@H](O)C[C@@]21C (stereo partly specified) | normalized growth | 0.987 |
| CC(O)(P(=O)(O)O)P(=O)(O)O | normalized growth | 0.988 |
| O=C(O)C1CCCNC1 (stereo unspecified) | normalized growth | 1.02 |
| Cc1onc(-c2ccccc2)c1-c1ccc(S(N)(=O)=O)cc1 | normalized growth | 1.01 |
| O=c1[nH]c(=O)n(C2C[C@H](O)[C@@H](CO)O2)cc1C(F)(F)F (stereo partly specified) | normalized growth | 0.947 |
